The reported measurements were obtained from ChEMBL document CHEMBL1949499.

- testDescription: Plasma clearance in Sprague-Dawley rat at 10 mg/kg, po and 2 mg/kg, iv
- Type: ADME, organism-based
metric: clearance (mL/min/kg)
Give bare numbers, in mL/min/kg.

Query: Name the recorded clearance of the molecule listed here: `O=C(O)c1cncc(-c2ccc(N3CCC(Oc4cc(F)ccc4Br)CC3)nn2)c1`
Result: 8.6

----------
- testDescription: Drug uptake in C57/BL6 mouse skin at 30 mg/kg, po after 24 hrs
- Assay type: ADME, organism-based, Zone of skin
- Design: dose 30 mg/kg, route oral
- reportedConditions: read-out: Drug uptake
metric: concentration at 24 h (nM)
One number for each entry, in nM.

Query: Return reported concentration at 24 h. Input compound: `O=C(O)c1cncc(-c2ccc(N3CCC(Oc4cc(F)ccc4Br)CC3)nn2)c1`
Result: 12

----------
- testDescription: AUC in Sprague-Dawley rat plasma at 10 mg/kg, po and 2 mg/kg, iv
- Type: ADME, organism-based
metric: AUC (µM·h)
Give bare numbers, in µM·h.

Query: Report AUC for `O=C(O)c1cncc(-c2ccc(N3CCC(Oc4cc(F)ccc4Br)CC3)nn2)c1`
Result: 17.8

----------
- testDescription: Volume of distribution at steady state in Sprague-Dawley rat at 10 mg/kg, po and 2 mg/kg, iv
- Assay type: ADME, organism-based
- reportedConditions: in vivo, read-out: Vdss
metric: Vd (L/kg)
One number for each entry, in L/kg.

Query: Entry `O=C(O)c1cncc(-c2ccc(N3CCC(Oc4cc(F)ccc4Br)CC3)nn2)c1` needs its Vd filled in; supply it.
Result: 0.41

----------
- testDescription: Half life in Sprague-Dawley rat at 10 mg/kg, po and 2 mg/kg, iv
- Type: ADME, organism-based
- reportedConditions: in vivo
metric: half-life
Kindly format the answer as number then unit.

Query: Identify measured half-life corresponding to `O=C(O)c1cncc(-c2ccc(N3CCC(Oc4cc(F)ccc4Br)CC3)nn2)c1`
Result: 1.4 h

----------
For each record, write down the corresponding Ratio.
- testDescription: Ratio of drug uptake in left median liver lobe to harderian gland in C57/BL6 mouse at 10 mg/kg, po after 6 hrs
- Type: ADME, organism-based
- Set-up: dose 10 mg/kg, route oral
- reportedConditions: in vivo
Give bare numbers.

[
  {
    "molecularString": "O=C(O)Cc1cncc(-c2ccc(N3CCC(Oc4cc(F)ccc4Br)CC3)nn2)c1",
    "Ratio": 4
  },
  {
    "molecularString": "O=C(O)c1cncc(-c2cnc(N3CCC(Oc4cc(F)ccc4Br)CC3)nn2)c1",
    "Ratio": 1.5
  }
]

Please look at the items below and tell me Ratio for each one, in order.
1. O=C(O)c1cncc(-c2cnc(N3CCC(Oc4cc(F)ccc4Br)CC3)nc2)c1
2. O=C(O)c1cncc(-c2cnc(N3CCC(Oc4cc(F)ccc4Br)CC3)cn2)c1
3. O=C(O)c1cncc(-c2ccc(N3CCC(Oc4cc(F)ccc4Br)CC3)nc2)c1
4. O=C(O)c1cncc(-c2ccc(N3CCC(Oc4cc(F)ccc4Br)CC3)nn2)c1

Result:
8
12
3
15

----------
- testDescription: Drug uptake in C57/BL6 mouse harderian glands at 30 mg/kg, po after 24 hrs
- Type: ADME, organism-based, Harderian gland
- Set-up: dose 30 mg/kg, route oral
- reportedConditions: read-out: Drug uptake
metric: concentration at 24 h (nM)
One number for each entry, in nM.

Query: Read the entry `O=C(O)c1cncc(-c2ccc(N3CCC(Oc4cc(F)ccc4Br)CC3)nn2)c1` and write its reported concentration at 24 h.
Result: 5
